# credit: ChEMBL document CHEMBL3785023

- MEASURED_ON: Fatty-acid amide hydrolase 1 (Homo sapiens, UniProt O00519)
- Sequence (O00519 whole entry): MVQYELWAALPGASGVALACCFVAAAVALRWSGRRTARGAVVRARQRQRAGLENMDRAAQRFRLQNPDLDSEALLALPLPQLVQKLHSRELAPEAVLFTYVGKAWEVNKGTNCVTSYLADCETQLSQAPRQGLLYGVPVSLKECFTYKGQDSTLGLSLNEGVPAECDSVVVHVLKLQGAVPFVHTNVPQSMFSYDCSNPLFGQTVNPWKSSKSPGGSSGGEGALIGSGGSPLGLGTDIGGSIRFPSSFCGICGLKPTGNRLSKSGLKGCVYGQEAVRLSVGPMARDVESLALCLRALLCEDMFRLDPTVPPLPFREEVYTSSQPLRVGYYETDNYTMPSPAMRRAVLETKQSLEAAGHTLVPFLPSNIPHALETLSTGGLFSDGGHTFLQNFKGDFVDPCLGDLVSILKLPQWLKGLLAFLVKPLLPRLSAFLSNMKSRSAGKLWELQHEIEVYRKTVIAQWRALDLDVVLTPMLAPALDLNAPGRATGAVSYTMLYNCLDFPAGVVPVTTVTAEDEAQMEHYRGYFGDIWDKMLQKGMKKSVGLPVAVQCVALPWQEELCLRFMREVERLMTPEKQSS
- PROCEDURE_SUMMARY: Inhibition of recombinant C-terminal His-tagged human FAAH expressed in sf21 cells using N-arachidonoyl-[14C]-ethanolamine as substrate assessed as reduction in [14C]ethanolamine production incubated for 30 mins by scintillation counting method
// reported IC50 per item
METRIC: IC50 (µM)

| COMPOUND | METRIC | UNIT_ANNOTATION | LT_GT_EQ | READOUT_NUMBER |
| --- | --- | --- | --- | --- |
| O=C(Oc1ccc([N+](=O)[O-])cc1)N1CCC(N2C(=O)[C@H](c3ccc(F)cc3)[C@H]2c2ccc3c(c2)OCO3)CC1 (racemic) | IC50 | µM | > | 10 |
| O=C1[C@H](c2ccc(F)cc2)[C@@H](c2ccc3c(c2)OCO3)N1C1CCN(C(=O)n2cncn2)CC1 (racemic) | IC50 | µM | = | 2.88 |
| O=C1[C@H](c2ccc(F)cc2)[C@@H](c2ccc3c(c2)OCO3)N1C1CCN(C(=O)n2cncn2)CC1 | IC50 | µM | = | 4.05 |
| O=C1[C@@H](c2ccc(F)cc2)[C@H](c2ccc3c(c2)OCO3)N1C1CCN(C(=O)n2cncn2)CC1 | IC50 | µM | = | 7.74 |

====

- MEASURED_ON: Cannabinoid receptor 1 (Homo sapiens)
- Sequence (P21554 whole entry): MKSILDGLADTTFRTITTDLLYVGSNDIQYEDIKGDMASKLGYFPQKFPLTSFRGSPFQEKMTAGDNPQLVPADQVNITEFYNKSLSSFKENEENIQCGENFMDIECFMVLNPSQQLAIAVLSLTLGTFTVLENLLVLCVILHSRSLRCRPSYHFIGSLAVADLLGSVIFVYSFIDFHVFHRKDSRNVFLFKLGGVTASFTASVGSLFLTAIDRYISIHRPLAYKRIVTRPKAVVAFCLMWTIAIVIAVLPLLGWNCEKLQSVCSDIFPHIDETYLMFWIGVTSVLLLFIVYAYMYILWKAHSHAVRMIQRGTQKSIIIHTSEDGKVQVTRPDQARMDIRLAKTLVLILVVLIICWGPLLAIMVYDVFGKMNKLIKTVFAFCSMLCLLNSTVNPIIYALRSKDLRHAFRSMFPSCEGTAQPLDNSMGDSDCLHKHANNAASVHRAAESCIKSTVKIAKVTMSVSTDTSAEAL
- PROCEDURE_SUMMARY: Displacement of [3H]-CP-55940 from human recombinant CB1 receptor expressed in HEK293 cells after 90 mins

| COMPOUND | IC50 |
| --- | --- |
| O=C1[C@H](c2ccc(F)cc2)[C@@H](c2ccc3c(c2)OCO3)N1C1CCN(C(=O)n2cncn2)CC1 (racemic) | > 10 µM |

====

- MEASURED_ON: Cannabinoid receptor 2 (Homo sapiens, UniProt P34972)
- Sequence (P34972 whole entry): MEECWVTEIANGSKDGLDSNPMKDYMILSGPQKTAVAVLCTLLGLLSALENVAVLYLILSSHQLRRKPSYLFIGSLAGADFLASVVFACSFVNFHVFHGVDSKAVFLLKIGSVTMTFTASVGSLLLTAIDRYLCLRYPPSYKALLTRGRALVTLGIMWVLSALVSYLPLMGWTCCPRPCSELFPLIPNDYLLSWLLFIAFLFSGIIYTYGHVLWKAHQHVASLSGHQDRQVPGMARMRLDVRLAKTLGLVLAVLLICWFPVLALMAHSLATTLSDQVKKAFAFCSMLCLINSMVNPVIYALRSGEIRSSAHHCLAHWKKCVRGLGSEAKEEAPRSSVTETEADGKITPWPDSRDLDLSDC
- PROCEDURE_SUMMARY: Displacement of [3H]-CP-55940 from human recombinant CB2 receptor expressed in HEK293 cells after 90 mins
METRIC: IC50

| COMPOUND | MEASURED_ON | METRIC | RESULT |
| --- | --- | --- | --- |
| O=C1[C@H](c2ccc(F)cc2)[C@@H](c2ccc3c(c2)OCO3)N1C1CCN(C(=O)n2cncn2)CC1 (racemic) | Cannabinoid receptor 2 (Homo sapiens, UniProt P34972) | IC50 | > 10 µM |

====

// reported IC50 for each item listed
- MEASURED_ON: UniProtKB Q99685
- Sequence (Q99685 whole entry): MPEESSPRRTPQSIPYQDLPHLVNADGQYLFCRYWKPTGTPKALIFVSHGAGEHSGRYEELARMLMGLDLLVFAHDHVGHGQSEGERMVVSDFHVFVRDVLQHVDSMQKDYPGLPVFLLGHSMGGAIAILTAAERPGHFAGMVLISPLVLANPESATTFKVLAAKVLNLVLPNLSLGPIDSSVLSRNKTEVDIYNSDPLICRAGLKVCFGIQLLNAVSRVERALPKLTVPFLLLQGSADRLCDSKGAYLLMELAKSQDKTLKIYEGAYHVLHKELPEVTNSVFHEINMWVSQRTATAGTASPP
- PROCEDURE_SUMMARY: Inhibition of recombinant C-terminal His6-tagged human MAGL expressed in Escherichia coli using 2-arachidonoyl-[3H]-glycerol as substrate incubated for 20 mins by scintillation counting method

| COMPOUND | LT_GT_EQ | IC50 [nM] |
| --- | --- | --- |
| O=C1[C@H](c2ccc(F)cc2)[C@@H](c2ccc3c(c2)OCO3)N1C1CCN(C(=O)n2cncn2)CC1 (racemic) | = | 7.4 |
| O=C(Oc1ccc([N+](=O)[O-])cc1)N1CCC(N2C(=O)[C@H](c3ccc(F)cc3)[C@H]2c2ccc3c(c2)OCO3)CC1 (racemic) | = | 1.41 |
| O=C1[C@H](c2ccc(F)cc2)[C@@H](c2ccc3c(c2)OCO3)N1C1CCN(C(=O)n2cncn2)CC1 | = | 4.6 |
| O=C(N1CCCCC1)n1cncn1 | > | 10000 |

====

- MEASURED_ON: Fatty-acid amide hydrolase 1 (Rattus norvegicus, UniProt P97612)
- Sequence (P97612 whole entry): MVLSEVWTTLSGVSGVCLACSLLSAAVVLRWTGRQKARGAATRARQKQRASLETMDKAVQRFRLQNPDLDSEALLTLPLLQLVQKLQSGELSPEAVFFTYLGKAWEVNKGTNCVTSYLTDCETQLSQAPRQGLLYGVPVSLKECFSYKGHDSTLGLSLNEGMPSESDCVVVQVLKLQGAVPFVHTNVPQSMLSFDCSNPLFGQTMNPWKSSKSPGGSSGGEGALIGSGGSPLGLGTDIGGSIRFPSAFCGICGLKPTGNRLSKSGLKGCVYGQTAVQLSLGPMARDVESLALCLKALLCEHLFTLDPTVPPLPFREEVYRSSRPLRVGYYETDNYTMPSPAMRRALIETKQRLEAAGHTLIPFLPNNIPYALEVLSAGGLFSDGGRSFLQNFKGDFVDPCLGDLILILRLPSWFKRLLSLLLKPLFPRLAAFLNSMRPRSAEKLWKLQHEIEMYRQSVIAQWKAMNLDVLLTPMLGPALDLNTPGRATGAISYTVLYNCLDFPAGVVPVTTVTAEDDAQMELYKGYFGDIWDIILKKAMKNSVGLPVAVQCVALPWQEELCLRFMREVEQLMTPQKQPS
- PROCEDURE_SUMMARY: Inhibition of FAAH in rat brain membranes using N-arachidonoyl-[14C]-ethanolamine as substrate assessed as reduction in [14C]ethanolamine production incubated for 30 mins by scintillation counting method
METRIC: IC50 (µM)

| COMPOUND | LT_GT_EQ | READOUT_NUMBER |
| --- | --- | --- |
| O=C(OC(C(F)(F)F)C(F)(F)F)N1CCC(N2C(=O)[C@H](c3ccc(F)cc3)[C@H]2c2ccc3c(c2)OCO3)CC1 (racemic) | > | 50 |
| COc1ccc([C@H]2C(=O)N(C3CCN(C(=O)n4cncn4)CC3)[C@@H]2c2ccc(OC)c(OC)c2)cc1 (racemic) | = | 0.725 |
| COc1ccc([C@H]2C(=O)N(C3CCN(C(=O)n4cncn4)CC3)[C@@H]2c2ccc(OC)cc2)cc1 (racemic) | = | 3.68 |
| COc1ccc([C@H]2C(=O)N(C3CCN(C(=O)n4cncn4)CC3)[C@@H]2c2ccc(OC)c(OC)c2)cc1OC (racemic) | > | 10 |
| COc1ccc([C@H]2C(=O)N(C3CCN(C(=O)n4cncn4)CC3)[C@@H]2c2ccc3c(c2)OCO3)cc1 (racemic) | = | 2.59 |

====

- PROCEDURE_SUMMARY: Apparent permeability from luminal to abluminal side in human endothelial cells cocultured with pericytes at 100 uM after 20 to 60 mins by LC-UV analysis
- Assay type: ADME, cell-based, Endothelial cell
METRIC: Papp at 100 µM

| COMPOUND | RESULT |
| --- | --- |
| O=C1[C@H](c2ccc(F)cc2)[C@@H](c2ccc3c(c2)OCO3)N1C1CCN(C(=O)n2cncn2)CC1 (racemic) | 47 ×10⁻⁶ cm/s |

====

- MEASURED_ON: Monoglyceride lipase (Homo sapiens)
- PROCEDURE_SUMMARY: Inhibition of recombinant C-terminal His6-tagged human MAGL expressed in Escherichia coli using 2-arachidonoyl-[3H]-glycerol as substrate incubated for 20 mins by scintillation counting method

| MOLECULE | MEASURED_ON | IC50 |
| --- | --- | --- |
| O=C1[C@H](c2ccc(F)cc2)[C@@H](c2ccc3c(c2)OCO3)N1C1CCN(Cc2ccccc2)CC1 (racemic) | Monoglyceride lipase (Homo sapiens) | > 10 µM |
| O=C1[C@@H](c2ccc(F)cc2)[C@H](c2ccc3c(c2)OCO3)N1C1CCN(C(=O)n2cncn2)CC1 | Monoglyceride lipase (Homo sapiens) | 0.0312 µM |
| O=C1[C@H](c2ccc(F)cc2)[C@@H](c2ccc3c(c2)OCO3)N1C1CCN(C(=O)n2ccnc2)CC1 (racemic) | Monoglyceride lipase (Homo sapiens) | > 10 µM |
| O=C1[C@H](c2ccc(F)cc2)[C@@H](c2ccc3c(c2)OCO3)N1C1CCNCC1 (racemic) | Monoglyceride lipase (Homo sapiens) | > 10 µM |

====

- MEASURED_ON: Monoglyceride lipase (Homo sapiens, UniProt Q99685)
- Sequence (Q99685 whole entry): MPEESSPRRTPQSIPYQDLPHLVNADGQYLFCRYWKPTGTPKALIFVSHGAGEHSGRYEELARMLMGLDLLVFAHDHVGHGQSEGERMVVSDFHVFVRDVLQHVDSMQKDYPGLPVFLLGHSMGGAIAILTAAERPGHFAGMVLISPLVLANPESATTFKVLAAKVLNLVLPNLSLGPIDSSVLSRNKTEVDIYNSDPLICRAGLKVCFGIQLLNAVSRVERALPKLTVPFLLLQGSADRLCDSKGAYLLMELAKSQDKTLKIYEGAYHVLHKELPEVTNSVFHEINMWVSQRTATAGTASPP
- PROCEDURE_SUMMARY: Inhibition of recombinant C-terminal His6-tagged human MAGL expressed in Escherichia coli using 2-arachidonoyl-[3H]-glycerol as substrate preincubated for 10 mins followed by substrate addition measured after 20 mins by scintillation counting method

| MOLECULE | IC50, nM |
| --- | --- |
| O=C1[C@@H](c2ccc(F)cc2)[C@H](c2ccc3c(c2)OCO3)N1C1CCN(C(=O)n2cncn2)CC1 | 728 |
| O=C1[C@H](c2ccc(F)cc2)[C@@H](c2ccc3c(c2)OCO3)N1C1CCN(C(=O)n2cncn2)CC1 (racemic) | 196 |
| O=C1[C@H](c2ccc(F)cc2)[C@@H](c2ccc3c(c2)OCO3)N1C1CCN(C(=O)n2cncn2)CC1 | 104 |
